The reported measurements were obtained from ChEMBL document CHEMBL1240516.

Target: Adenosine 5'-monophosphoramidase HINT1 (Mus musculus, UniProt P70349)
Sequence (P70349 whole entry): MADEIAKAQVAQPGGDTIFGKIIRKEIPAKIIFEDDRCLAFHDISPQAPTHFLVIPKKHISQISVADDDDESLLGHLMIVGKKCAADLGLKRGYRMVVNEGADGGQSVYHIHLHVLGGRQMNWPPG
Experiment: Binding affinity to mouse HINT1 by NMR analysis
measured-property: Kd (µM)
Answer in µM, number only, no unit symbol.

Problem: Find the measured Kd of Nc1nc2c(ncn2[C@@H]2O[C@H](COP(=O)(O)O)[C@H](O)[C@@H]2O)c(=O)[nH]1 [E626] and report it.
Result: 60

---

molecular target: UniProtKB P70349; assay: Binding affinity to mouse HINT1 by fluorescence quenching assay
Reported pKd values for the following compounds.
Would you please state pKd, meaning minus log10 of the concentration in mol/L, as a bare number?

Nc1nc2c(ncn2[C@@H]2O[C@H](COP(=O)(O)O)[C@H](O)[C@@H]2O)c(=O)[nH]1 : 4.17

Alright, here's another compound for you.
Problem: Please supply the value of reported pKd for the item NC(=O)c1ncn([C@@H]2O[C@H](COP(=O)(O)O)[C@@H](O)[C@H]2O)c1N
Result: 2.96
